B1: library; numbered along this chain (parent)
chain: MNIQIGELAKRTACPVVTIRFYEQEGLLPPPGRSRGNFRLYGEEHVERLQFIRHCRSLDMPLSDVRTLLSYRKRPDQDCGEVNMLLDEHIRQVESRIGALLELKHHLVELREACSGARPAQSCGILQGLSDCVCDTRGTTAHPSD

# Variants of: B1
# method.description: sfGFP reporter fluorescence (15 h) (µM FITC); higher = stronger transcriptional activation
# setup.conditions: library round: Round 0; ligand: 30 µM Zn
So basically, the class depends on measured sfGFP reporter fluorescence, and the ranges are group 1 = under 0.06, group 2 = from 0.06 up to 0.3, group 3 = 0.3 and over

* E109M | group 3
* H89K | group 2
* L126P | group 1
* M1A | group 2
* C79T | group 1
* E7P | group 3
* E43V | group 3
* L85F | group 2
* V16W | group 2
